Conditions: in methanol, 278.15 K

| smiles | solubility (mole fraction) |
| --- | --- |
| CS(=O)(=O)c1ccc([C@@H](O)[C@@H](CO)NC(=O)C(Cl)Cl)cc1 | 0.00023 |

----------
Conditions: in ethyl acetate, 288.15 K

| smiles | solubility (mole fraction) |
| --- | --- |
| CS(=O)(=O)c1ccc([C@@H](O)[C@@H](CO)NC(=O)C(Cl)Cl)cc1 | 0.000124 |

----------
Conditions: in ethanol, 288.15 K

| smiles | solubility (mole fraction) |
| --- | --- |
| CS(=O)(=O)c1ccc([C@@H](O)[C@@H](CO)NC(=O)C(Cl)Cl)cc1 | 0.000219 |
